B1: HEEH_KT_rd6_0790 (parent)
chain: SEEEEEEWRRAKERGEEIIILGILWKPNDEEAERRIKEALRRV

variants of: B1; assay: folding stability dG (cDNA display proteolysis); higher = more stable; conditions: PBS, room temperature

[
  {
    "SEQ_TEXT": "SEEEEEEWRRAKERGEEIIILGILWKPNDEEVERRIKEALRRV [A32V]",
    "folding stability dG / kcal/mol": 1.37
  },
  {
    "SEQ_TEXT": "SEEEEEEWRRAKERGEEIIILGILWKENDEEAERRIKEALRRV [P27E]",
    "folding stability dG / kcal/mol": 1.37
  },
  {
    "SEQ_TEXT": "SEEEEEEWRRAKSRGEEIIILGILWKPNDEEAERRIKEALRRV [E13S]",
    "folding stability dG / kcal/mol": 2.1
  },
  {
    "SEQ_TEXT": "SEEEEEEWRRAKERGEEIIILGILWKPNDEEAERRIKEALRRF [V43F]",
    "folding stability dG / kcal/mol": 2.5
  },
  {
    "SEQ_TEXT": "SEEEEMEWRRAKERGEEIIILGILWKPNDEEAERRIKEALRRV [E6M]",
    "folding stability dG / kcal/mol": 1.87
  },
  {
    "SEQ_TEXT": "SEEEEEENRRAKERGEEIIILGILWKPNDEEAERRIKEALRRV [W8N]",
    "folding stability dG / kcal/mol": 0.676
  },
  {
    "SEQ_TEXT": "SEEEEEEWRHAKERGEEIIILGILWKPNDEEAERRIKEALRRV [R10H]",
    "folding stability dG / kcal/mol": 1.76
  },
  {
    "SEQ_TEXT": "SEEEEEEWRRAKERGEEIIILGILWKPNDEEAERRIREALRRV [K37R]",
    "folding stability dG / kcal/mol": 2.37
  },
  {
    "SEQ_TEXT": "SEEEEEEWRRAKERGEEIIILGILWKPKDEEAERRIKEALRRV [N28K]",
    "folding stability dG / kcal/mol": 1.45
  },
  {
    "SEQ_TEXT": "SEEEEEEWRRAKERGEEIIILGILWKPNDEEAERRIKEKLRRV [A39K]",
    "folding stability dG / kcal/mol": 1.79
  },
  {
    "SEQ_TEXT": "SEEEPEEWRRAKERGEEIIILGILWKPNDEEAERRIKEALRRV [E5P]",
    "folding stability dG / kcal/mol": 1.91
  },
  {
    "SEQ_TEXT": "SEEEEEEWRRAKERGEEIICLGILWKPNDEEAERRIKEALRRV [I20C]",
    "folding stability dG / kcal/mol": 2.07
  },
  {
    "SEQ_TEXT": "SEEEEEEWRRAKERGEEIGILGILWKPNDEEAERRIKEALRRV [I19G]",
    "folding stability dG / kcal/mol": 1.01
  },
  {
    "SEQ_TEXT": "SEEEEEEWRRAKERGEEKIILGILWKPNDEEAERRIKEALRRV [I18K]",
    "folding stability dG / kcal/mol": 1.68
  },
  {
    "SEQ_TEXT": "SEEEEEEGRRAKERGEEIIILGILWKPNDEEAERRIKEALRRV [W8G]",
    "folding stability dG / kcal/mol": 0.818
  },
  {
    "SEQ_TEXT": "SEEEEEEWRWAKERGEEIIILGILWKPNDEEAERRIKEALRRV [R10W]",
    "folding stability dG / kcal/mol": 1.77
  },
  {
    "SEQ_TEXT": "SEEEEEEWRRAKERGEEIIILGILWKPNDEEAERRINEALRRV [K37N]",
    "folding stability dG / kcal/mol": 2.35
  },
  {
    "SEQ_TEXT": "SEEEEEEWRRAKERGEQIIILGILWKPNDEEAERRIKEALRRV [E17Q]",
    "folding stability dG / kcal/mol": 2.02
  },
  {
    "SEQ_TEXT": "SEEEEEEWRRAKERGEEIIILGILWKPNDEEAERRIKHALRRV [E38H]",
    "folding stability dG / kcal/mol": 1.39
  },
  {
    "SEQ_TEXT": "SEEEEEEWRRAKERGEEIIILGILWKPDDEEAERRIKEALRRV [N28D]",
    "folding stability dG / kcal/mol": 2.19
  },
  {
    "SEQ_TEXT": "SEEEESEWRRAKERGEEIIILGILWKPNDEEAERRIKEALRRV [E6S]",
    "folding stability dG / kcal/mol": 1.63
  },
  {
    "SEQ_TEXT": "SEEEEEEWRRAKERGEEIIILGILWKPNDEEAERRIKECLRRV [A39C]",
    "folding stability dG / kcal/mol": 2.06
  }
]
